Each entry below carries its reported mass density.
recordedConditions: 303.15 K; 101.33 kPa; Liquid
Lab book: enter the figure in kg/m3, no units written.

Examples from the recorded data:
{"columns": ["smilesRepr", "mass density, kg/m3"],
 "data": [
  ["CCCCO", 802.04],
  ["CCCCCCCCO", 818.31],
  ["CCCCCCO", 811.71]
]}

Query: Suppose we examine the molecule "OCCO" ; what mass density value has been reported?
Reply: 1106.4

----------
refractive index values by entry
experimentDescription: refractive index (Na D-line) (dimensionless)
recordedConditions: 293.15 K; 101.33 kPa; Liquid; Standard Abbe refractometry
Number, no unit, nothing else.

Reference set (2 entries):
{"columns": ["smilesRepr", "reportedProperty", "val"],
 "data": [
  ["OCCO", "refractive index", 1.4323],
  ["CCCCCCO", "refractive index", 1.4183]
]}

Query: What value of measured refractive index is listed for "CCCCO" ?
Reply: 1.3997

Query: Also, "CCCCCCCCO" please.
Reply: 1.4298

----------
A collection of compounds and their measured mass density
recordedConditions: 313.15 K; 101.33 kPa; Liquid
Return type: number; implicit unit kg/m3.

Query: What measured mass density goes with "CCCCCCO" ?
Reply: 804.53

Query: Proceed to "OCCO"
Reply: 1099.35

Query: One more compound: "CCCCO"
Reply: 794.31

Query: Next: "CCCCCCCCO"
Reply: 811.41

----------
recordedConditions: 293.15 K; 101.33 kPa; Liquid
Quick reference for mass density among some molecules
Reply numerically in kg/m3, unit not repeated.

Previously resolved entries follow.
{"columns": ["molecule", "displayUnit", "mass density"],
 "data": [
  ["CCCCCCO [hexan-1-ol]", "kg/m3", 818.74],
  ["CCCCCCCCO [octan-1-ol]", "kg/m3", 825.12],
  ["CCCCO [butan-1-ol]", "kg/m3", 809.6]
]}

// moving on: another record for mass density
Query: Item OCCO [1,2-ethanediol] has what recorded mass density?
Reply: 1113.37

----------
experimentDescription: refractive index (Na D-line) (dimensionless)
recordedConditions: 298.15 K; 101.33 kPa; Liquid; Standard Abbe refractometry
refractive index overview
Format: numeric value only, no unit, no commentary.

Sample answers from the record:
{"columns": ["smilesRepr", "reportedProperty", "val"],
 "data": [
  ["CCCCCCCCO", "refractive index", 1.428],
  ["OCCO", "refractive index", 1.4309],
  ["CCCCO", "refractive index", 1.3978]
]}

Query: Quick one: refractive index of "CCCCCCO" ?
Reply: 1.4161
